Items are presented alongside their recorded pEC50.
Molecular target: UniProt P11229
Assay: Functional mobilization of intracellular calcium (FLIPR) in CHO cells expressing M1
Details: CHO cells expressing M1, FLIPR calcium
pEC50: −log10 of the molar value.

CC(C)(C)CCN1CCC2(CCC(C#N)c3ccccc32)CC1 (stereo not shown) [compound 97]    > 5.70
Cn1cnc(C(=O)N[C@@H]2CCC3(CCN(CCC(C)(C)C)CC3)c3cc(F)ccc32)c1 [compound 180]    > 5.70
CC(C)(C)CCN1CCC2(CC[C@H](N3CCCCC3=O)c3ccccc32)CC1 [compound 57]    5.30 to 5.70

From here, focus on the item given below.
Exercise: Entry CC(C)(C)CCN1CCC2(CC1)CC(F)(F)C(O)c1ccccc12 (stereo not shown) [compound 120] has what pEC50?
Key: > 5.70

----------
Items are presented alongside their recorded Emax.
Target: M2 muscarinic receptor (Homo sapiens, UniProt P08172)
Construct: expressed in transfected cells; host or cells: CHO (M2-CHO)
Assay: Functional mobilization of intracellular calcium (FLIPR) in CHO cells expressing M2
Type: cell-based
Conditions: CHO; 100% = maximum response obtained with the Carbachol control; read-out: M2 Efficacy

CC(=O)N1CCC[C@H]1C(=O)N[C@@H]1CCC2(CCN(CCC(C)(C)C)CC2)c2ccccc21 [compound 84]    25 to 100%
CC(C)(C)CCN1CCC2(CC[C@H](NC(=O)C3CCN(C(=O)c4ccccc4)CC3)c3ccccc32)CC1 [compound 36]    < 25%
CC(C)(C)CCN1CCC2(CC[C@H](NC(=O)C3CC(=O)N3)c3ccc(F)cc32)CC1 (stereo partly shown) [compound 67]    25 to 100%
CCC(=O)N1CCCCC1C(=O)N[C@@H]1CCC2(CCN(CCC(C)(C)C)CC2)c2ccccc21 (stereo partly shown) [compound 5]    < 25%
C[C@H](C(=O)N[C@H]1CCC2(CCN(CCC(C)(C)C)CC2)c2ccccc21)N1CCCCC1=O [compound 38]    < 25%
CN1CC(C(=O)N[C@H]2CCC3(CCN(CCC(C)(C)C)CC3)c3ccccc32)CC1=O (stereo partly shown) [compound 144]    25 to 100%

Exercise: Entry CC(C)(C)CCN1CCC2(CC[C@H](NC(=O)Cc3cccnc3)c3ccc(F)cc32)CC1 [compound 79] has what Emax?
Key: 25 to 100%

----------
Items are presented alongside their recorded Emax.
Target: M1 muscarinic receptor (Homo sapiens, UniProt P11229)
Construct: expressed in transfected cells; host or cells: CHO (M1-CHO)
Sequence (P11229 whole entry): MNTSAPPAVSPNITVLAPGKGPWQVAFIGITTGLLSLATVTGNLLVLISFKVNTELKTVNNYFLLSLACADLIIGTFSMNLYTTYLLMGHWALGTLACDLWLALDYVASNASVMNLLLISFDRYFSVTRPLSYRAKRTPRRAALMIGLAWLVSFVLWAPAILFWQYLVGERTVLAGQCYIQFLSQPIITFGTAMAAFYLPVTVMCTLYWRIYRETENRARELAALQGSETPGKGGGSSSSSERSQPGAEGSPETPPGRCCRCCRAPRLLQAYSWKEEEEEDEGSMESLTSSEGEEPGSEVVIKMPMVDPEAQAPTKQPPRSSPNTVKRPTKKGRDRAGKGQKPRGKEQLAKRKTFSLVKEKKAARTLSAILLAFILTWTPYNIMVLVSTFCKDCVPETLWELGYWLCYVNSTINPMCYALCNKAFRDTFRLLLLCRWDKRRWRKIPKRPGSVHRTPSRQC
Test: Functional mobilization of intracellular calcium (FLIPR) in CHO cells expressing M1
Type: cell-based
Details: CHO; 100% efficacy = maximum response obtained with the Carbachol control

// worked examples, Emax included
CC(=O)N[C@H]1CC2(CCN(C(=O)OC(C)(C)C)CC2)c2ccc(C)cc21    < 25%
CC(=O)N1CCCCC1C(=O)N[C@@H]1CCC2(CCN(CCC(C)(C)C)CC2)c2ccccc21 (some centres unmarked)    25 to 100%
CC(C)(C)CCN1CCC2(CC[C@H](NC(=O)Cc3cccnc3)c3ccccc32)CC1    25 to 100%
CC(=O)N[C@H]1CC2(CCN(CC(N)=O)CC2)c2ccccc21    < 25%
CC(=O)N[C@H]1CC2(CCN(CC(C)CCC=C(C)C)CC2)c2ccccc21 (some centres unmarked)    25 to 100%
C=CCC(C)(C)CN1CCC2(CC1)C[C@H](NC(C)=O)c1ccccc12    25 to 100%
CCN(C(=O)CCC(C)=O)[C@@H]1CCC2(CCN(CCC(C)(C)C)CC2)c2ccccc21    < 25%

From here, focus on the item given below.
Exercise: Entry `CC(=O)N1CCC[C@H]1C(=O)N[C@H]1CCC2(CCN(CCC(C)(C)C)CC2)c2ccccc21` has what Emax?
Key: 25 to 100%

----------
Items are presented alongside their recorded EC50.
Biological target: UniProtKB P11229
Test: Functional mobilization of intracellular calcium (FLIPR) in CHO cells expressing M1
Conditions: CHO cells expressing M1, FLIPR calcium

Exercise: Entry CCn1cc(C(=O)N[C@H]2CCC3(CCN(CCC(C)(C)C)CC3)c3ccccc32)cn1 [compound 115] has what EC50?
Key: < 2000 nM

Exercise: Entry CC(C)(C)CCN1CCC2(CC[C@H](NC(=O)C3CCC(=O)N3)c3ccc(F)cc32)CC1 (stereo partly shown) [compound 103] has what EC50?
Key: < 2000 nM

Exercise: Entry CC(=O)N(C)[C@H]1CCC2(CCN(CCC(C)(C)C)CC2)c2ccccc21 [compound 123] has what EC50?
Key: < 2000 nM

Exercise: Entry CC(=O)N1CCCC[C@@H]1C(=O)N[C@@H]1CCC2(CCN(CCC(C)(C)C)CC2)c2cc(F)ccc21 [compound 149] has what EC50?
Key: 2000 to 5000 nM

----------
Items are presented alongside their recorded Emax.
Target: M2 muscarinic receptor (Homo sapiens)
Construct: expressed in transfected cells; host or cells: CHO (M2-CHO)
Sequence (P08172 1-466): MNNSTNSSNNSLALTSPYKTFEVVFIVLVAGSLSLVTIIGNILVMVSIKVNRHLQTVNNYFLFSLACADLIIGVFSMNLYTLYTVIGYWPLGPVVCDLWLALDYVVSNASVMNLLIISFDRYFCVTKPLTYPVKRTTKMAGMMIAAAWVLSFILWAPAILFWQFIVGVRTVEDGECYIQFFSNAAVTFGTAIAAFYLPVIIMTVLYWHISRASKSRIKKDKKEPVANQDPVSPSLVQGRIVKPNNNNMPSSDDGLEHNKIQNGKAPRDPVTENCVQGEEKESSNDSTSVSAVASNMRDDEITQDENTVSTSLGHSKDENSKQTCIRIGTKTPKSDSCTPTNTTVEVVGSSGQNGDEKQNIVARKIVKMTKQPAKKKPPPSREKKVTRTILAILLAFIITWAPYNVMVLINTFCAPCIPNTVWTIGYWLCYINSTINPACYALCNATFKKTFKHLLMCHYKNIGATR
Assay: Functional mobilization of intracellular calcium (FLIPR) in CHO cells expressing M2
Format: cell-based
Settings: CHO; 100% efficacy = maximum response obtained with the Carbachol control

CC(C)CCN1CCC2(CC1)C[C@H](NC(=O)C1CCCC1)c1ccccc12    < 25%
CCOCC(=O)N[C@H]1CCC2(CCN(CCC(C)(C)C)CC2)c2cc(F)ccc21    25 to 100%

Exercise: Entry `CCN(C(=O)Cc1ccncc1)[C@H]1CCC2(CCN(CCC(C)(C)C)CC2)c2ccccc21` has what Emax?
Key: < 25%

Exercise: Entry `COc1cc2c(cc1OC)C1(CCN(C(=O)OC(C)(C)C)CC1)CC2=O` has what Emax?
Key: < 25%

Exercise: Entry `COC(=O)CCCCCN1CCC2(CC1)C[C@H](NC(C)=O)c1ccccc12` has what Emax?
Key: 25 to 100%

Exercise: Entry `CC(C)(C)CCN1CCC2(CC[C@@H](NC(=O)C3CCOCC3)c3ccccc32)CC1` has what Emax?
Key: < 25%

Exercise: Entry `C/C=C(\C)CN1CCC2(CC1)C[C@H](NC(C)=O)c1ccccc12` has what Emax?
Key: < 25%

Exercise: Entry `CC(=O)N[C@H]1CC2(CCN(CCC(C)C)CC2)c2ccccc21` has what Emax?
Key: < 25%

----------
Target: M1 muscarinic receptor (Homo sapiens, UniProt P11229)
Construct: expressed in transfected cells; host or cells: CHO (M1-CHO)
Test: Functional mobilization of intracellular calcium (FLIPR) in CHO cells expressing M1
Type: cell-based
Conditions: CHO; 100% = maximum response obtained with the Carbachol control; read-out: M1 Efficacy
Items are presented alongside their recorded Emax.

Exercise: Entry `CCN(C(=O)c1cscn1)[C@H]1CCC2(CCN(CCC(C)(C)C)CC2)c2ccccc21` has what Emax?
Key: < 25%

Exercise: Entry CC(=O)N[C@H]1CCC2(CCN(CCC(C)CC(C)(C)C)CC2)c2ccccc21 (some centres unmarked) has what Emax?
Key: 25 to 100%

Exercise: Entry `CCN(C(=O)CCC(C)=O)[C@H]1CCC2(CCN(CCC(C)(C)C)CC2)c2ccccc21` has what Emax?
Key: 25 to 100%

----------
Biological target: M3 muscarinic receptor (Homo sapiens, UniProt P20309)
Sequence (P20309 whole entry): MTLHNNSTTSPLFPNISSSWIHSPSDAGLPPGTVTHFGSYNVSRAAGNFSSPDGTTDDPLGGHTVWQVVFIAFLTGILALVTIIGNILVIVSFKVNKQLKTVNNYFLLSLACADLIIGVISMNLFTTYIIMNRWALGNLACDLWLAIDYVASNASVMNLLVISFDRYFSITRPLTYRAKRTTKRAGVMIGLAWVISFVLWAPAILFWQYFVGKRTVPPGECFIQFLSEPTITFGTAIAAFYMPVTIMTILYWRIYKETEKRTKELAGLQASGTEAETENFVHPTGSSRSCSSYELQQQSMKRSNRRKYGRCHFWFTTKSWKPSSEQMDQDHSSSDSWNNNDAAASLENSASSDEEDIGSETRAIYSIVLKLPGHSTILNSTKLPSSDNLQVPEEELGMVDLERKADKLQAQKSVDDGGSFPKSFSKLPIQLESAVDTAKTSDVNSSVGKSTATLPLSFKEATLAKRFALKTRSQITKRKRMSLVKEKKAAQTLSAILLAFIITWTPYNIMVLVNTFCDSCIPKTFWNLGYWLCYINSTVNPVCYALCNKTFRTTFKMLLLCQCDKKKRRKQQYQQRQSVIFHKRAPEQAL
Assay: Functional mobilization of intracellular calcium (FLIPR) in CHO cells expressing M3
Settings: CHO cells expressing M3, FLIPR calcium
pEC50: −log10 of the molar value.
MEASURED ENDPOINT: pEC50

// worked examples, pEC50 included
CCC(=O)C1NCCC1C(=O)N[C@H]1CCC2(CCN(CCC(C)(C)C)CC2)c2cc(F)ccc21 (some centres unmarked) [compound 26]    < 5.30
CCC(=O)N1CCCCC1C(=O)N[C@@H]1CCC2(CCN(CCC(C)(C)C)CC2)c2ccccc21 (some centres unmarked) [compound 5]    < 5.30
CC(=O)CCC(=O)N[C@H]1CCC2(CCN(CCC(C)(C)C)CC2)c2ccccc21 [compound 18]    < 5.30
CC(C)(C)CCN1CCC2(CC[C@H](NS(C)(=O)=O)c3ccccc32)CC1 [compound 1]    < 5.30
CC(C)CCN1CCC2(CC[C@H](N3C(=O)CCC3=O)c3ccccc32)CC1 [compound 142]    < 5.30
CCN(C(=O)C1CCOCC1)[C@H]1CCC2(CCN(CCC(C)(C)C)CC2)c2ccccc21 [compound 170]    < 5.30
CC(=O)N1CCCC1C(=O)N[C@H]1CCC2(CCN(CCC(C)(C)C)CC2)c2ccccc21 (some centres unmarked) [compound 60]    < 5.30

From here, focus on the item given below.
Exercise: Could you share what pEC50 was measured for CCN(C(=O)C1CCCO1)[C@H]1CCC2(CCN(CCC(C)(C)C)CC2)c2ccccc21 (some centres unmarked) [compound 39] , tested on M3 muscarinic receptor (Homo sapiens, UniProt P20309)?
Key: < 5.30
